Just for reference, patent US20230212549A1 is where these values come from.

tested on: Recombinant human FAP (R&D systems, #3715-SE) (human, UniProt Q12884 26-760)
Sequence (Q12884 26-760 limits assumed): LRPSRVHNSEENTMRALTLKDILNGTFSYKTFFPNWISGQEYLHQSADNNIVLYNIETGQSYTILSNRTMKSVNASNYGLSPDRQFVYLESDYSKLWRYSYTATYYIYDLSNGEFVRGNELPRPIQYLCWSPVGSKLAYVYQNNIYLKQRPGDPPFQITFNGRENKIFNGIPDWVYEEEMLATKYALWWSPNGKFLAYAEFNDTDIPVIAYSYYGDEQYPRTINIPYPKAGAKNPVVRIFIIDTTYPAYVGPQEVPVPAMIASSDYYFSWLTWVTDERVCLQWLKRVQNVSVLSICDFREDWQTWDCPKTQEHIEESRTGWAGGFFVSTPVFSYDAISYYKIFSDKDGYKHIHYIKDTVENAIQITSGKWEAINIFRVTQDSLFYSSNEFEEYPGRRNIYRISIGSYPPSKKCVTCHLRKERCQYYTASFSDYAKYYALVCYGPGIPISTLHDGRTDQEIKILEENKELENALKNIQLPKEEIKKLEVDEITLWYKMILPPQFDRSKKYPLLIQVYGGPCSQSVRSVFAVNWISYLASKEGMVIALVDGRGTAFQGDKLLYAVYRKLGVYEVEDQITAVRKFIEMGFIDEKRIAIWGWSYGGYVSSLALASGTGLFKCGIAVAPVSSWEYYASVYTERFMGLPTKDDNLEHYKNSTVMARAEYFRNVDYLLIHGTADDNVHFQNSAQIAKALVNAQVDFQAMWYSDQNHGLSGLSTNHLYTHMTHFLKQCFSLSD
test description: cell-based or functional assay
Numbered stars: 1 amine (or outer) side, 2 acyl side, 3 side chain; on linkers, the order of the positions; unused ones are H or OH. Bridge positions count the residues as written; N and C are the ends. Square brackets hold non-standard residues; d marks the D form. Primed or numbered codes have the meaning given here. * marks the point of attachment. tMeBn(LuDOTA-AET) = 1,3,5-trimethylbenzylidene (from 1,3,5-tris(bromomethyl)benzene) bridge with two thioethers to the Cys, its third CH2 carries AET (2-aminoethanethiol, attached through S), whose amine is acylated by DOTA complexing lutet, O=C([O-])CN1CCN(CC(=O)[O-])CCN(CC(=O)NCCSCc2cc(C[*:1])cc(C[*:2])c2)CCN(CC(=O)[O-])CC1.[Lu+3]; tMeBn(DOTA-PP) = 1,3,5-trimethylbenzylidene, two thioethers to Cys, third CH2 bound to one N of piperazine whose other N bears DOTA, O=C(O)CN1CCN(CC(=O)O)CCN(CC(=O)N2CCN(Cc3cc(C[*:1])cc(C[*:2])c3)CC2)CCN(CC(=O)O)CC1; Ttds″ = 1,13-diamino-4,7,10-trioxatridecan-succinamic acid spacer, O=C(CCC(=O)[*:2])NCCCOCCOCCOCCCN[*:1]; N4Ac = 6-Carboxy-1,4,8,11-tetraazaundecane, an N4-chelator, NCCNCC(CNCCN)C(=O)*; APAc = 2-(4-(Amino)piperidin-1-yl)acetic acid, O=C(CN1CCC(N[*:1])CC1)[*:2]; 3MeBn(3) = 3-methylbenzylidene (m-xylylene), from α,α′-dibromo-m-xylene; mXylylene = c1cc(C[*:1])cc(C[*:2])c1; AF488 = Alexa Fluor 488 label; Nle = CCCC[C@H](N)C(=O)O; Hexanoyl = CCCCCC(=O)*; Nleu = CC(C)CNCC(=O)O; GABA = NCCCC(=O)O
readout name: pIC50 Category (Activity)

// below: answered binders
- binder: "Hexanoyl-C[Nleu]PTQFC-NH2 (linker 1-7 via mXylylene; SMILES CCCCCC(=O)N[C@H]1CSCc2cccc(c2)CSC[C@@H](C(N)=O)NC(=O)[C@H](Cc2ccccc2)NC(=O)[C@H](CCC(N)=O)NC(=O)[C@H]([C@@H](C)O)NC(=O)[C@@H]2CCCN2C(=O)CN(CC(C)C)C1=O) [Hex-[Cys(3MeBn)-Nleu-Pro-Thr-Gln-Phe-Cys]-NH2]"
  pIC50 Category (Activity): "≤ 6 pIC50"
- binder: "Hexanoyl-CPPTQFCD[GABA]R[Ttds″][Ttds″][Ttds″]K(AF488)-NH2 (linker 1-7 via tMeBn(LuDOTA-AET); also: Lu complexed by DOTA, also called 3BP-4373) [Hex-[Cys(tMeBn(LuDOTA-AET))-Pro-Pro-Thr-Gln-Phe-Cys]-Asp-Gab-Arg-Ttds-Ttds-Ttds-Lys(AF488)-NH2]"
  pIC50 Category (Activity): "> 8 pIC50"
- binder: "Hexanoyl-CPPTQFCD-NH2 (linker 1-7 via tMeBn(H-O2Oc-PP), also called 3BP-3967) [Hex-[Cys-(tMeBn(H-O2Oc-PP))-Pro-Pro-Thr-Gln-Phe-Cys]-Asp-NH2]"
  pIC50 Category (Activity): "> 8 pIC50"
- binder: "Hexanoyl-CPPTQFCG-OH (linker 1-7 via tMeBn(InDOTA-AET); also: In complex (InDOTA), also called 3BP-3714) [Hex-[Cys(tMeBn(InDOTA-AET))-Pro-Pro-Thr-Gln-Phe-Cys]-Gly-OH]"
  pIC50 Category (Activity): "> 8 pIC50"
- binder: "Hexanoyl-CPPTQFCD[GABA]R[Ttds″]K(AF488)-NH2 (linker 1-7 via tMeBn(LuDOTA-AET); not fully specified (residue 1); printed as Hex-[Cys(tMeBn(LuDOTA-AET))-Pro-Pro-Thr-Gln-Phe-Cys]-Asp-Gab-Arg-Ttds-Lys(AF488)-NH2; also: DOTA complexing lutetium, also called 3BP-4372) [Hex-[Cys(tMeBn(LuDOTA-AET))-Pro-Pro-Thr-Gln-Phe-Cys]-Asp-Gab-Arg-Ttds-Lys(AF488)-NH2]"
  pIC50 Category (Activity): "> 8 pIC50"

(Q) Specify pIC50 Category (Activity) for Hexanoyl-CFQTPPCD-NH2 (linker 1-7 via tMeBn(DOTA-PP); SMILES CCCCCC(=O)N[C@H]1CSCc2cc(cc(CN3CCN(C(=O)CN4CCN(CC(=O)O)CCN(CC(=O)O)CCN(CC(=O)O)CC4)CC3)c2)CSC[C@@H](C(=O)N[C@@H](CC(=O)O)C(N)=O)NC(=O)[C@@H]2CCCN2C(=O)[C@@H]2CCCN2C(=O)[C@H]([C@@H](C)O)NC(=O)[C@H](CCC(N)=O)NC(=O)[C@H](Cc2ccccc2)NC1=O) [Hex-[Cys(tMeBn(DOTA-PP))-Phe-Gln-Thr-Pro-Pro-Cys]-Asp-NH2] and stop.
(A) ≤ 6 pIC50

(Q) Specify pIC50 Category (Activity) for N4Ac-[APAc][Nle]CPPTEFC-OH (linker 3-9 via 3MeBn(3)) [N4Ac-APAc-Nle-[Cys-(3MeBn)-Pro-Pro-Thr-Glu-Phe-Cys]-OH] and stop.
(A) ≤ 6 pIC50
